EC50, GR luciferase reporter activity in HEK293/GRLuc/MSR1 cells values, listed per item
# target: T1, human macrophage scavenger receptor 1 (MSR1) (human, UniProt P21757 1-451)
# T1 sequence (looked up): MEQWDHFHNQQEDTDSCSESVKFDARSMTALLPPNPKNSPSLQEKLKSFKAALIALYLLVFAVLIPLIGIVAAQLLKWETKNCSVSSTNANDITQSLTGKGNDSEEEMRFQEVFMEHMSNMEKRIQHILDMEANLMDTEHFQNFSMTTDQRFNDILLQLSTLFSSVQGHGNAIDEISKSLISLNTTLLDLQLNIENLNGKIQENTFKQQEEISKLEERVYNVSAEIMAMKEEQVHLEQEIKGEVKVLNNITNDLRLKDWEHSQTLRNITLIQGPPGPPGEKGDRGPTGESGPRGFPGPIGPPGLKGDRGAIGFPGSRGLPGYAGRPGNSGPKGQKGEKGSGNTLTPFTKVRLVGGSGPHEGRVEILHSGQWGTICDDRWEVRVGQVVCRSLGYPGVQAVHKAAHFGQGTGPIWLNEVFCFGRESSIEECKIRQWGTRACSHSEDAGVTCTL
# testProtocol: cell-based or functional assay
Form entry: value (pM) — number only.

Below are worked cases with known answers.
H1H21234N-N297Q-L1-PIII-1 (antibody, V domains shown, heavy-chain constant region (not part of this entry): N297Q (EU); linker-payload L1-PIII-1 (DIBAC-suc-PEG4-vcPAB-PIII-1, payload 6,11-2F-budesonide III) clicked onto azido-PEG3-amine on glutamines; DAR 4) VH: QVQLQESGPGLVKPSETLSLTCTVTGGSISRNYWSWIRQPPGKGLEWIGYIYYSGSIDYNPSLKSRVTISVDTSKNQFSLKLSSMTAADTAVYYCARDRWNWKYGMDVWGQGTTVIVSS VL: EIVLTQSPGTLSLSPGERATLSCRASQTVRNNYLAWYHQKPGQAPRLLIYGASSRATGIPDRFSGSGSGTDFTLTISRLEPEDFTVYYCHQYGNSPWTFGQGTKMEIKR = 97.3
H1H21234N-N297Q-L3-PIII-1 (antibody, V domains shown, heavy-chain constant region (not part of this entry): N297Q (EU); linker-payload L3-PIII-1 (DIBAC-suc-PEG4-GGF-PIII-1) clicked onto azido-PEG3-amine on glutamines; DAR 4) VH: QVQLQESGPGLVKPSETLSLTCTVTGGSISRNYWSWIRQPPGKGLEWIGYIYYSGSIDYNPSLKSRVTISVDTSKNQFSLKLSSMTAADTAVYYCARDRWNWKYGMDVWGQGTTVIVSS VL: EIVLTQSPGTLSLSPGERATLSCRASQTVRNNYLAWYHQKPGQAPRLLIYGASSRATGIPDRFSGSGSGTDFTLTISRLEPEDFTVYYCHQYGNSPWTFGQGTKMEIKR = 85.4
H1H21234N-N297Q-L2-PIII-1 (antibody, V domains shown, heavy-chain constant region (not part of this entry): N297Q (EU); linker-payload L2-PIII-1 (DIBAC-suc-PEG4-Glu-vcPAB-PIII-1) clicked onto azido-PEG3-amine on glutamines; DAR 4) VH: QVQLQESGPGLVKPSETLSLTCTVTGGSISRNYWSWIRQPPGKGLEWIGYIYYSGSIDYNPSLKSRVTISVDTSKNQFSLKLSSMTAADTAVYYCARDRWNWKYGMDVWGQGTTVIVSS VL: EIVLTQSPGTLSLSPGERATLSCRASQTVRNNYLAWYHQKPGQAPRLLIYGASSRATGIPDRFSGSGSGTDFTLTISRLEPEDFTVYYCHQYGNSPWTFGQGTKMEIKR = 184
H1H21234N-N297Q-L5-PIII-1 (antibody, V domains shown, heavy-chain constant region (not part of this entry): N297Q (EU); linker-payload L5-PIII-1 (DIBAC-suc-SGGG-PIII-1) clicked onto azido-PEG3-amine on glutamines; DAR 4) VH: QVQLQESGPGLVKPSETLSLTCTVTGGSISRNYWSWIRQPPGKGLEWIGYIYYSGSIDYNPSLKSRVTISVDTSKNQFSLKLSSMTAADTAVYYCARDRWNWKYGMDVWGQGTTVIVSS VL: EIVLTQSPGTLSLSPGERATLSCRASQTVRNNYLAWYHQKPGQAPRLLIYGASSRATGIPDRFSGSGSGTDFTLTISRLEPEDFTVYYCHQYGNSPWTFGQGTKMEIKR = 138
H1H21234N-N297Q-L1-PII-1 (antibody, V domains shown, heavy-chain constant region (not part of this entry): N297Q (EU); linker-payload L1-PII-1 (DIBAC-suc-PEG4-vcPAB-PII-1, payload budesonide) clicked onto azido-PEG3-amine on glutamines; DAR 4) VH: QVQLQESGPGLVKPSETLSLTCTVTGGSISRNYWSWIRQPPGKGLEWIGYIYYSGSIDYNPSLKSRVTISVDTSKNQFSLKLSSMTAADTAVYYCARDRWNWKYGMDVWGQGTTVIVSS VL: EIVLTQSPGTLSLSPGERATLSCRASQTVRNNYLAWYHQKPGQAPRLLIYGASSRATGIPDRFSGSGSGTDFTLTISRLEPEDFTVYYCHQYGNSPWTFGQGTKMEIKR = 609

# evaluate next
stdin: Output measured EC50, GR luciferase reporter activity in HEK293/GRLuc/MSR1 cells for this item: H1H21234N-N297Q-L4-PIII-1 (antibody, V domains shown, heavy-chain constant region (not part of this entry): N297Q (EU); linker-payload L4-PIII-1 (DIBAC-suc-GGF-PIII-1) clicked onto azido-PEG3-amine on glutamines; DAR 4) VH: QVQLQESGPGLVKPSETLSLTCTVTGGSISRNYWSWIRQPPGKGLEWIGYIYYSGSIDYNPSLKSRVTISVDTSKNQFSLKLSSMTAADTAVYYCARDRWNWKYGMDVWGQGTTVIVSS VL: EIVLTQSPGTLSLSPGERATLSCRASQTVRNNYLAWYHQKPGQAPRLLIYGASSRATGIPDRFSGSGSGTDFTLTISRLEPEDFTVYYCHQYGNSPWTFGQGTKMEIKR
stdout: 117
